Entry source: patent US20240075137A1

For each entry below, report its pKd value.
- assay.target: T1, human TIGIT on cells (human, UniProt Q495A1 22-141)
- T1 construct: also called Expi293 human TIGIT over-expressing cells
- T1 sequence: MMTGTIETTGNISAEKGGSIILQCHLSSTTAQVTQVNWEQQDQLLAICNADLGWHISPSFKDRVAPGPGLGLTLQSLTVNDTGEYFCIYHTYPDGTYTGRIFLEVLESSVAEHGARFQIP
- test.details: FACS titration of AF647-labelled mAb on human effector memory CD8+ T cells, Donor 334
One number for each entry, as −log10 of the molar value.

Example entries begin here.
| binder | pKd |
| --- | --- |
| CHA.9.547.7.H4(S241P) (antibody, human IgG4 S228P, kappa, V domains shown, humanized hybridoma anti-TIGIT antibody, human IgG4) VH: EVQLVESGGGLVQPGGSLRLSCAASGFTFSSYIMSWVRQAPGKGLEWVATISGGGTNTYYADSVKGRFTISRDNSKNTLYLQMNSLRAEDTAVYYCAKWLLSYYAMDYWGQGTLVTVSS VL: DIQMTQSPSSLSASVGDRVTITCRASQNINVWLTWYQQKPGKAPKLLIYKASKSHTGVPSRFSGSGSGTDFTLTISSLQPEDFATYYCQQGQSYPYTFGQGTKLEIKR | 8.74 |
| CPA.9.086.H4(S241P) (antibody, human IgG4 S228P, lambda, V domains shown) VH: EVQLVETGGGLIQPGRSLRLSCAASGFTFSSYAMHWVRQAPGKGLEWVAVISYAGEVKYYADSVKGRFTISRDNSKNTLYLQMNSLRAEDTAVYYCARDPLPLHYYGMDVWGQGTTVTVSS VL: QSALTQPRSASGNPGQRVTISCSGSSSNMGRRPVNWYQQIPGTAPKLLIYSQNQRPSGVPDRFSGSQSGTSASLTISGLQSEDEAEYFCAVWDDIGRVLQLGGGTQLAVLG | 9.89 |

Please examine the following record next.
QUERY: Query: pKd; subject: CHA.9.547.13.H4(S241P) (antibody, human IgG4, V domains shown, humanized hybridoma antibody, human IgG4 (S241P)) VH: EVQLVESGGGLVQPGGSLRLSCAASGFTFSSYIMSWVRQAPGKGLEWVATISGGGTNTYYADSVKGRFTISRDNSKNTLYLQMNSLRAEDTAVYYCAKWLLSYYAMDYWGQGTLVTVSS VL: DIQMTQSPSSLSASVGDRITITCRASQNINVWLSWYQQKPGKAPKLLIYKASKSHTGVPSRFSGSGSGTDFTLTISSLQPEDFATYYCQQGQSYPYTFGQGTKLEIK
RESULT: 8.92
